Would you kindly list yeast fitness for each of these variants?
B1: tRNA (parent)
chain: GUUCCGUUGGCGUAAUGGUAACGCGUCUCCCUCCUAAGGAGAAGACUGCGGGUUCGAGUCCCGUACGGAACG

- Variants of: B1
- assay remarks: yeast fitness relative to wild type (ratio to wild type); higher = fitter; tRNA-Arg(CCU), competitive growth, 37 C, YPD
Variants at the floor of the assay were thinned out.
Numbers only.

The cases that follow already have their yeast fitness on record.
U16A C49U G67A	0.67
A21C C22U	0.664
C4G A36U C46U	0.59
A36G U47C	0.989
U2C C4U A36G G44C	0.615

Please give yeast fitness for each item listed below.
1. G38U C46A
2. U8C A42U C62U A65C
3. C4U C22G C33A A36C A43G C55G
4. A40C G41C G68C
5. C27A A36G

### Response
1: 0.783; 2: 0.534; 3: 0.742; 4: 0.542; 5: 0.761

Please give yeast fitness for each item listed below.
1. G12A U26A C46U
2. C11A U59C A69U
3. U7G C24G C27U C29A

### Response
[0.543, 0.573, 0.6]
